Attribute: IC50
system name: human Werner helicase (WRN, amino acids 517-1235 with L1074F point mutation) (Homo sapiens (Human), UniProt Q14191, L1074F)
Sequence (Q14191 other isoform, or with tags, fused parts or gaps L1074F (already in the parent)): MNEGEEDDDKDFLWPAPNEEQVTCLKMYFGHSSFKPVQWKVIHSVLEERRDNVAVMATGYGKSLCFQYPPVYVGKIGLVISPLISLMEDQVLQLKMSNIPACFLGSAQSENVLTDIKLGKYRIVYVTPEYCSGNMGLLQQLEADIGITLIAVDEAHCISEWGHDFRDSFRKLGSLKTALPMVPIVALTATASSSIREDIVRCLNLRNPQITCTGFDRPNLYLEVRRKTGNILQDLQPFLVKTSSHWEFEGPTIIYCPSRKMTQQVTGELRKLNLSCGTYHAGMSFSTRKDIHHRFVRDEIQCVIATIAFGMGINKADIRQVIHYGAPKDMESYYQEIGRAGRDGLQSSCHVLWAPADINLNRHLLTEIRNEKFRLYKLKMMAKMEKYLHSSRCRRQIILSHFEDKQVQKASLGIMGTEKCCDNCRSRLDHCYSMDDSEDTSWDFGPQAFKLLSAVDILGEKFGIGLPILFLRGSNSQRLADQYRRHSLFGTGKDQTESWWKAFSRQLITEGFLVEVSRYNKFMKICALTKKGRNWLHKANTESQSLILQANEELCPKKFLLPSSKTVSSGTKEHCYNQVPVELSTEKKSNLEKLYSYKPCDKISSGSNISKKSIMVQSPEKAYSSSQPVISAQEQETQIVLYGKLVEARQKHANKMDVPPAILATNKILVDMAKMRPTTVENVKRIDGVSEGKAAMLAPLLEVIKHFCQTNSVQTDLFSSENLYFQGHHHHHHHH
assay overview: WRN (BV08) ADP-Glo assay
experimental conditions: human WRN (aa 517-1235, L1074F), read-out: ADP-Glo_hWRN_IC50

# compound, IC50
data = [
    ("CCc1c(N2CCN(C(=O)c3cc(N4CCC(C)(O)C4)cnc3OC)[C@H]3CC[C@@H]32)c(=O)c2nn(C3=CCOCC3)nc2n1CC(=O)NC12CC(C3CC3)(C1)C2 (stereo partly drawn)", "5 to 50 nM"),
    ("CCc1c(N2CCN(C(=O)c3c(OCCOC)ncc(C)c3O)CC2)c(=O)c2nn(-c3ccnc(OC)c3)nc2n1CC(=O)NC12CC(C(C)C)(C1)C2", "5 to 50 nM"),
]

Sure, the documented IC50 for CCc1c(N2CCN(C(=O)c3c(O)cncc3OC)CC2)c(=O)c2nn(-c3ccnc(OC)c3)nc2n1CC(=O)NC12CC(C(C)C)(C1)C2 is 5 to 50 nM

---

system name: human Werner helicase (WRN, amino acids 517-1235 with L1074F point mutation) (Homo sapiens (Human), UniProt Q14191, L1074F)
assay overview: WRN (BV08) ADP-Glo assay
experimental conditions: human WRN (aa 517-1235, L1074F), read-out: ADP-Glo_hWRN_IC50
observation type: IC50

# compound, IC50
data = [
    ("CCc1c(N2CCN(C(=O)c3ncnc(C)c3O)CC2)c(=O)c2nn(-c3ccnc(C)c3)nc2n1CC(=O)Nc1ccc(C(F)(F)F)cc1Cl", "≤ 5 nM"),
    ("CCc1c(N2CCN(C(=O)c3c(OC)ncc(C)c3O)CC2)c(=O)c2nn(-c3ccnc(OC)c3)nc2n1CC(=O)NC12CC(C3CCOC3)(C1)C2 (stereo not drawn)", "50 to 100 nM"),
]

Now look at this one.
Sure, the documented IC50 for CCc1c(N2CCN(C(=O)c3ncnc(C)c3O)[C@H]3CC[C@@H]32)c(=O)c2nn(-c3ccnc(OC)c3)nc2n1CC(=O)NC12CC(C(C)(F)F)(C1)C2 [Compound I-61] is 5 to 50 nM

---

system name: human Werner helicase (WRN, amino acids 517-1235 with L1074F point mutation) (Homo sapiens (Human), UniProt Q14191, L1074F)
assay overview: WRN (BV08) ADP-Glo assay
experimental conditions: human WRN (aa 517-1235, L1074F), read-out: ADP-Glo_hWRN_IC50
pIC50: −log10 of the molar value.
Attribute: pIC50

Known results for compounds:
# compound, pIC50
measured = [
    ("CCc1c(N2CCN(C(=O)c3[nH]cnc3C#N)[C@H]3CC[C@@H]32)c(=O)c2nn(C3=CCOCC3)nc2n1CC(=O)NC12CC(C(C)C)(C1)C2", "7.30 to 8.30"),
    ("CCc1c(N2CCN(C(=O)c3ncnc(C)c3O)CC2)c(=O)c2nn(C3=CCOCC3)nc2n1CC(=O)Nc1ccc(C(F)(F)F)cc1Cl [Compound I-13]", "7.30 to 8.30"),
]

Sure, the documented pIC50 for CCc1c(N2CCN(C(=O)c3c(OC)ncc(C)c3O)[C@H]3CC[C@@H]32)c(=O)c2nn(-c3ccnc(OC)c3)nc2n1CC(=O)NC12CC(C(C)C)(C1)C2 [Compound I-17] is 7.30 to 8.30

Sure, the documented pIC50 for CCc1c(N2CCN(C(=O)c3ncnc(C)c3O)[C@H]3CC[C@@H]32)c(=O)c2nn(-c3ccnc(OC)c3)nc2n1CC(=O)NC1(C)CC2(CCC2)C1 is 7.30 to 8.30
